assayed-system: T. gondii adenosine kinase (Toxoplasma gondii, UniProt Q9TVW2)
Sequence (Q9TVW2 whole entry): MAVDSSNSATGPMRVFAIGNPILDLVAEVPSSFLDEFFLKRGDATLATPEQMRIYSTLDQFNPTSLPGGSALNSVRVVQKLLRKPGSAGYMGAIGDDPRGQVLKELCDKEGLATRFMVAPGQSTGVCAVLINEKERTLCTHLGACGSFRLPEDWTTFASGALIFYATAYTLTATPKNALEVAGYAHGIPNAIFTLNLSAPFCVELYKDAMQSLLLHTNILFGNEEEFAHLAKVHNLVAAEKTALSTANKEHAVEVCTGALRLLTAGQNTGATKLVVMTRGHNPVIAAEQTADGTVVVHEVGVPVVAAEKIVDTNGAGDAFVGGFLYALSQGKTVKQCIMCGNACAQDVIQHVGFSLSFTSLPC
assay-protocol: biochemical
assay-metric: Ki (µM)

1) COc1ccc(C[C@H](N)C(=O)N[C@H]2[C@@H](O)[C@H](n3cnc4c(N(C)C)ncnc43)O[C@@H]2CO)cc1 [Compound 124]; 1300
2) CSc1ncnc2c1cnn2[C@@H]1O[C@H](CO)[C@@H](O)[C@H]1O [Compound 79]; 140
3) Nc1ccc(CNc2ncnc3c2ncn3[C@@H]2O[C@H](CO)[C@@H](O)[C@H]2O)cc1 [Compound 46]; 120
